- MEASUREMENT_TARGET: T1, full length recombinant human 2N4R tau (human, UniProt P10636 1-758)
- T1 construct: bought from rPeptide; pHrodo Red maleimide-labelled where it stands in uptake assays; also called tau1-441; full length tau
- T1 sequence (P10636 other isoform, or with tags, fused parts or gaps limits assumed): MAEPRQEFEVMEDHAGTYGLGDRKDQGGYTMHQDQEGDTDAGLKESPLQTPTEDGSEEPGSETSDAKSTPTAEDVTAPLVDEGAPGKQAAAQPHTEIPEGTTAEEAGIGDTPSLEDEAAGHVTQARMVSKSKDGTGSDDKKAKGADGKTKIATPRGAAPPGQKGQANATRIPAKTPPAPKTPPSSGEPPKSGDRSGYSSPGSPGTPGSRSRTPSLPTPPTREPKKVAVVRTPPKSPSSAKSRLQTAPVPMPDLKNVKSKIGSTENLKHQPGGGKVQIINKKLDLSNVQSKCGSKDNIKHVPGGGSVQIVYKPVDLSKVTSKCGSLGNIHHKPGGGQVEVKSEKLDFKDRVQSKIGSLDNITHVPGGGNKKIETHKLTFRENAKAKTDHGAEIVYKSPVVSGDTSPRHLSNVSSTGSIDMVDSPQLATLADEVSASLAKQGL
- ASSAY_REMARKS: SPR MCK, IgG on Protein A, tau in flow
- From the text: Slight variations in RMAX are considered likely to be due to differences in ligand capture and not reflective of significant variation in antibody binding characteristics. […]
MEASURED_ENDPOINT: Relative KD (to VH0VK0)
The answer should be written as a number, with no unit following it.

Any idea what its Relative KD (to VH0VK0) is? The binder is #44 VH0VK0 chimeric human IgG1 (antibody, V domains shown, rabbit VH and VK on human IgG1; also called VH0Vκ0; Clone #44 hIgG1) VH: QSVEESGGRLVTPGTPLTLTCTVSGIDLSSYAMAWVRQAPGKGLEWIGCIDRRGGTFYASWVKGRFTISKTSTTVDLKMTSLTTEDTATYFCARDSGAFDPWGPGTLVTVSS VL: QIVMTQTPSSVSAAVGGTVTIKCQASQSVYDNYLAWYQQKPGQPPKLLIHAASNLASRVPSRFKGSGSGTQFTLTISDVQCDDAATYYCLGEFSCTTTDCNVFGGGTEVVVK 1

Follow-up item: #44 VH3VK3 humanised hIgG1 (antibody, V domains shown, also called VH3Vκ3; Clone VH3VK3 (A)) VH: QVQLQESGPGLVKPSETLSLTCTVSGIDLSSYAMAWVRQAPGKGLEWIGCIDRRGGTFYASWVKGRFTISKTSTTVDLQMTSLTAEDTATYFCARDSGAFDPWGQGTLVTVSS VL: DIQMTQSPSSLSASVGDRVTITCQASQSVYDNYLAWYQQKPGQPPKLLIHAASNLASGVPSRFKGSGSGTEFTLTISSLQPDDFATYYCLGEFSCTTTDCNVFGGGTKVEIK 1.75

Follow-up item: #44 VH3VK4 humanised hIgG1 (antibody, V domains shown, also called VH3Vκ4; Clone VH3VK4 (B)) VH: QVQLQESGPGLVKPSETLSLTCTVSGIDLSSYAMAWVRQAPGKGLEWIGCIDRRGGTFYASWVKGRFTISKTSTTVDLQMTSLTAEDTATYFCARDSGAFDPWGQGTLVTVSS VL: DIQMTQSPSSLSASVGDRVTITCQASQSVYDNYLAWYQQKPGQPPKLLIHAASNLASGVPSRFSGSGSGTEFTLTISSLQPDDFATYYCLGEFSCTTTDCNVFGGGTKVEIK 2.02

Follow-up item: #44_VH4VK4 humanised hIgG1 (antibody, V domains shown, also called VH4Vκ4; pVH/pVL) VH: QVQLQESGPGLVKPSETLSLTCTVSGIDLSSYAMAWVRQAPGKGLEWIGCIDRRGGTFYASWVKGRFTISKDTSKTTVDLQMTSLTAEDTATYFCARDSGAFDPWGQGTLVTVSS VL: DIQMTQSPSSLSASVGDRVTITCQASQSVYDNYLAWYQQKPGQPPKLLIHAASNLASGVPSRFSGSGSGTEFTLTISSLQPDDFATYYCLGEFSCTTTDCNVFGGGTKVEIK 1.8

Follow-up item: #44 VH4VK2 humanised hIgG1 (antibody, V domains shown, also called VH4Vκ2; Clone VH4VK2 (C)) VH: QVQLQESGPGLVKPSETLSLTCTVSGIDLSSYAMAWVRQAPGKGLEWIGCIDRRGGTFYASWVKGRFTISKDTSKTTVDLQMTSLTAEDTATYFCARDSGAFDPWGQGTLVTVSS VL: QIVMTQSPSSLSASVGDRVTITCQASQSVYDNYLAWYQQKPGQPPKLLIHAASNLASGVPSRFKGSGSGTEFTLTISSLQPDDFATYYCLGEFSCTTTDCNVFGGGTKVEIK 1.35

Follow-up item: #44 VH4VK3 humanised hIgG1 (antibody, V domains shown, also called VH4Vκ3; Clone VH4VK3 (D)) VH: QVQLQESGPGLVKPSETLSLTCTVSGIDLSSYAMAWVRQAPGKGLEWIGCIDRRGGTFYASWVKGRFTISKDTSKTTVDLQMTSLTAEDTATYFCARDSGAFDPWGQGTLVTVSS VL: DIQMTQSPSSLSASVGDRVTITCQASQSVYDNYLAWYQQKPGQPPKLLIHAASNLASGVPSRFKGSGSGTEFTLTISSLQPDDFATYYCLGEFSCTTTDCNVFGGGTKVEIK 1.58
